target: ENL YEATS domain (AviSUMO-ENL YEATS) (Homo sapiens, UniProt Q03111)
Construct: encoding ENL YEATS (aa 1−148) was cloned in pET28a-; made in house; host or cells: E. coli BL21(DE3pLysS), co-expressed with BirA (pBirAcm)
Sequence (Q03111 1-148): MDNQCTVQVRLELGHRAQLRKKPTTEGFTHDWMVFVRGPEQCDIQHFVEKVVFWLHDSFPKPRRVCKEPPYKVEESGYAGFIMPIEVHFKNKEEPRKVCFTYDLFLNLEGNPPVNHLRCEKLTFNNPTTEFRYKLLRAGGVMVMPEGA
measurement protocol: Phage panning of BuK-containing 7-mer library against AviSUMO-ENL YEATS with Illumina NGS abundance
cond: sheet ENLR3: round 3 of panning against ENL YEATS; TAG = amber codon (BuK); 7-mer library positions V1-V7
List of percent (share of sequence reads) values.
Please answer in the form of a number followed by its unit of measurement.

Observe how each entry below is paired with its result.
[[record]]
substance = "LLWTAGLAS"
result = "0.0009106%"

[[record]]
substance = "HLTFFTAGG"
result = "0.002732%"


Here's the next entry for you.
Input line: So what does the record say about percent (share of sequence reads) for "WWIIETAGD" ?
Output line: 0.02094%
